- experimentalSystem: FGF14:Nav1.6 C-tail complex (Homo sapiens, UniProt Q92915+Q9UQD0)
- Construct: polymerase chain reaction (PCR) amplification of the FGF14 open reading frame (nt 1–855); C-terminal fragment of Nav1.6 (amino acids 1763–1976) fused with CD4ΔC-tail (amino acids 1–395); expressed in transfected cells
- Sequence (Q92915 1-252 isoform Q92915-2): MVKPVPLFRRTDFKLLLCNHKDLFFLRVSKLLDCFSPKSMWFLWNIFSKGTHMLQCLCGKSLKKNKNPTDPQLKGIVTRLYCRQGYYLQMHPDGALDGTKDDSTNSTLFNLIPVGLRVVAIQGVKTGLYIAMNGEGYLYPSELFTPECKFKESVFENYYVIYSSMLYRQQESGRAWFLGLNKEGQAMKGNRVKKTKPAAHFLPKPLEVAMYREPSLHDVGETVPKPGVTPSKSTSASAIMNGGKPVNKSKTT
- Sequence (Q9UQD0 1763-1976 limits assumed): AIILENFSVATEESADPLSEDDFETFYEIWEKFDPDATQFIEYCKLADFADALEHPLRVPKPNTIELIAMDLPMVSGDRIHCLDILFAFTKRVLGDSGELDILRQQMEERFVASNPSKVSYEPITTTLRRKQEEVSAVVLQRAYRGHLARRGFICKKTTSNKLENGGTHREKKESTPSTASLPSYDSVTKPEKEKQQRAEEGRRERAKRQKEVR
- experimentNotes: Split-luciferase complementation assay (LCA) in Clone V double stable HEK293 cells
- Format: cell-based
- assaySetup: CC_NCI screening; LCA, biological replicate Set 2; normalized to on-plate 0.3% DMSO controls
Would you mind telling me the reported Split Luciferase Assay Z-score Set 2 of each entry?
Field format: numeric only.

Identify the measured Split Luciferase Assay Z-score Set 2 of C=C1C[C@@H]2[C@H](CC[C@]3(C)C(=O)CC[C@@H]23)[C@@]2(C)C=CC(=O)C=C12 for FGF14:Nav1.6 C-tail complex (Homo sapiens, UniProt Q92915+Q9UQD0).
-0.26

Identify the measured Split Luciferase Assay Z-score Set 2 of Cc1ccc(NC(=O)c2ccc(CN3CCN(C)CC3)cc2)cc1Nc1nc(-c2cccnc2)cs1 for FGF14:Nav1.6 C-tail complex (Homo sapiens, UniProt Q92915+Q9UQD0).
-6.78

Identify the measured Split Luciferase Assay Z-score Set 2 of C=CCNC1=C2C[C@@H](C)C[C@H](OC)[C@H](O)[C@@H](C)/C=C(\C)[C@H](OC(N)=O)[C@@H](OC)/C=C\C=C(/C)C(=O)NC(=CC1=O)C2=O for FGF14:Nav1.6 C-tail complex (Homo sapiens, UniProt Q92915+Q9UQD0).
-4.75

* * *

- experimentalSystem: FGF14:Nav1.6 C-tail complex (Homo sapiens, UniProt Q92915+Q9UQD0)
- Construct: polymerase chain reaction (PCR) amplification of the FGF14 open reading frame (nt 1–855); C-terminal fragment of Nav1.6 (amino acids 1763–1976) fused with CD4ΔC-tail (amino acids 1–395); expressed in transfected cells
- experimentNotes: Split-luciferase complementation assay (LCA) in Clone V double stable HEK293 cells
- Assay type: cell-based
- assaySetup: CC_NCI screening, biological replicate Set 2; normalized to on-plate 0.3% DMSO controls
One threshold, -0.3, splits the recorded Split Luciferase Assay Z-score Set 2 values: lower ones are 1, equal or higher ones are -1.

Check if Split Luciferase Assay Z-score Set 2 falls below -0.3 for NC(=O)c1ccc2[nH]ccc2c1 [SD 169] .
-1

Check if Split Luciferase Assay Z-score Set 2 falls below -0.3 for Cc1nc2c(c(=O)[nH]1)CSCC2 [DR 2313] .
-1

Check if Split Luciferase Assay Z-score Set 2 falls below -0.3 for Nc1ncn([C@@H]2O[C@H](CO)[C@@H](O)[C@H]2O)c(=O)n1 [Azacitidine] .
-1

Check if Split Luciferase Assay Z-score Set 2 falls below -0.3 for O=C(O)CCCc1ccc(N(CCCl)CCCl)cc1 [Chlorambucil, reference compound] .
-1

Check if Split Luciferase Assay Z-score Set 2 falls below -0.3 for Fc1ccc(Cl)cc1-c1nc(Nc2ccncc2)c2nccnc2n1 [SD 208] .
1

Check if Split Luciferase Assay Z-score Set 2 falls below -0.3 for O=c1cc(N2CCOCC2)nc2c3ccccc3ccn12 [COMPOUND 401] .
1

* * *

- experimentalSystem: FGF14:Nav1.6 C-tail complex (Homo sapiens, UniProt Q92915+Q9UQD0)
- Construct: polymerase chain reaction (PCR) amplification of the FGF14 open reading frame (nt 1–855); C-terminal fragment of Nav1.6 (amino acids 1763–1976) fused with CD4ΔC-tail (amino acids 1–395); expressed in transfected cells
- experimentNotes: Split-luciferase complementation assay (LCA) in Clone V double stable HEK293 cells
- Type: cell-based
- assaySetup: CC_NCI screening, biological replicate Set 1; normalized to on-plate 0.3% DMSO controls (n=16 per plate)
Would you mind telling me the reported Split Luciferase Assay % Lum Set 1 of each entry?
Respond numerically; units are % and should not be typed.

Record request: Split Luciferase Assay % Lum Set 1 value, item COc1cc(O)c2c(c1)[C@H]1O[C@@H]1C[C@H](O)[C@H](O)C(=O)/C=C\C[C@H](C)OC2=O
53.59

Record request: Split Luciferase Assay % Lum Set 1 value, item NC(=O)c1ncn([C@@H]2O[C@H](CO)[C@@H](O)[C@H]2O)c1N
100.34

Record request: Split Luciferase Assay % Lum Set 1 value, item O=C1NC(=O)/C(=C/c2ccc3c(c2)OCO3)S1
82.95

Record request: Split Luciferase Assay % Lum Set 1 value, item Cc1nc2sccn2c(=O)c1CCN1CCC(=C(c2ccccc2)c2ccc(F)cc2)CC1
76.42

Record request: Split Luciferase Assay % Lum Set 1 value, item N#Cc1c(O)c2c(-c3ccc(-c4ccccc4O)cc3)csc2[nH]c1=O
118.82

Record request: Split Luciferase Assay % Lum Set 1 value, item Oc1cccc(-c2nc(N3CCOCC3)c3oc4ncccc4c3n2)c1
111.21

Record request: Split Luciferase Assay % Lum Set 1 value, item NC(=O)Nc1cc(-c2cccc(F)c2)sc1C(=O)N[C@H]1CCCNC1
82.95

Record request: Split Luciferase Assay % Lum Set 1 value, item COc1cc2c(Nc3ccc(NC(=O)c4ccccc4)cc3)ncnc2cc1OCCCN1CCOCC1
120.99
